# Test system: SNB-75 CNS
# MEASUREMENT DESCRIPTION: NCI tumour cell line growth inhibition, 48 h
Reported TGI values for a set of compounds

1) COc1ccc(NC(=O)CC(=O)n2nc(C)c(N=Nc3cccc(C)c3)c2C)cc1 ... > 100 µM
2) COc1cccc2c1-c1c(c3ccc([N+](=O)[O-])cc3c(=O)n1CCCN)C2=O ... 25.1 µM
3) CCCCCCNC(=O)CCC(NC(=O)c1ccc(N(C)Cc2cnc3nc(N)nc(N)c3n2)cc1)C(=O)NCCCCCC (stereo not drawn) ... > 100 µM
4) CC(C)CCCC(C)[C@H]1CC[C@H]2[C@@H]3CC[C@H]4C[C@@H](CCC=C(c5cc(Cl)c(O)c(C(=O)OC(C)C)c5)c5cc(Cl)c(O)c(C(=O)OC(C)C)c5)CC[C@]4(C)[C@H]3CC[C@]12C (stereo partly drawn) ... > 50 µM
5) CCOC(=O)c1c(Br)c(-c2ccc(OC)cc2)c(Br)n1C ... > 100 µM
6) COc1ccc2c(c1)CC[C@@H]1[C@@H]2CC[C@]2(C)[C@@H](NC(=O)/C=C/c3ccc(O)c(O)c3)CC[C@@H]12 ... > 100 µM
7) N#Cc1c(Br)n(C2OC(CO)C(O)C2O)c2ncnc(N)c12 (stereo not drawn) ... 30.7 µM

Request: TGI, test system SNB-75 CNS, entry `Clc1ccc(-c2nnc(-c3cccc4ccccc34)o2)cc1Cl`
> 100 µM

----------
# Tested on: SNB-19 CNS
# MEASUREMENT DESCRIPTION: NCI tumour cell line growth inhibition, 48 h; in the data active = GI50 below about 0.43 µM; inactive = the rest
Select the matching outcome among active, inactive

See these solved cases before continuing.
1. Nc1ccccc1.[C-]#[O+].[C-]#[O+].[C-]#[O+].[C-]#[O+].[C-]#[O+].[Cr] ... inactive
2. Cc1cc(Nc2nc(-c3cccnc3)nc3ccccc23)n[nH]1 ... inactive
3. COc1ccccc1C1=C(Nc2ccccc2)C(=O)NC1=O ... inactive
4. Brc1ccc2[nH]cc(-c3nc(-c4c[nH]c5ncccc45)cs3)c2c1 ... inactive
5. N#Cc1c(Br)n(C2OC(CO)C(O)C2O)c2ncnc(N)c12 (configuration not stated) ... inactive

Per the records of this test, what outcome belongs to `O=C(O)c1cn(C2CC2)c2cc(N3CCN(C(=O)Nc4nc(-c5ccccc5)cs4)CC3)c(F)cc2c1=O` ?
inactive

Per the records of this test, what outcome belongs to `Clc1ccc(-c2csc(Nc3cccc(-c4csc(-c5ccccc5)n4)c3)n2)cc1` ?
inactive

Per the records of this test, what outcome belongs to `COc1cccc(-c2nn(-c3ccccc3)cc2-c2ccnc(NCCNC(=O)Nc3cccc(C(F)(F)F)c3)c2)c1` ?
inactive

----------
# Test system: A498 renal
# MEASUREMENT DESCRIPTION: NCI tumour cell line growth inhibition, 48 h; in the data active = GI50 below about 0.43 µM; inactive = the rest
Select the matching outcome among class 1 = active, class 0 = inactive

1. CCN(Cc1ccc(F)cc1)c1ccc(CO)c(C)c1 ... class 1
2. CCN1C(=O)CCCc2c1ccc(Nc1ncc(Cl)c(NC3[C@@H](C(N)=O)[C@@H]4C=C[C@H]3C4)n1)c2OC (stereo not given in full) ... class 0
3. CC(C)N1CCN(Cc2ccc3c(NNC(=O)c4ccccc4)nc4cc(F)ccc4n23)CC1 ... class 0

Now examine the next entry.
Per the records of this test, what outcome belongs to CC(=O)N1N=C(c2ccc(Nc3ccnc4cc(Cl)ccc34)cc2)CC1c1ccc(Cl)cc1 (stereo not given) ?
class 0
